Origin of the recorded values: paper PMC3440086

tested on: Nrf2-dependent ARE transcriptional activity; test: ARE-luc luciferase reporter gene assay in HepG2 cells (qHTS); type: cell-based; details: Homo sapiens; confirmation/follow-up studies, HepG2, 16 hr exposure, mean ± SD; read-out: ARE-luc EC50
Counter-ions that a name gives are not always drawn.
RECORDED_METRIC: log10 EC50 (log10 of the value in µM)
Heads up: the numbers are on a log10 scale; they represent EC50 in µM.

Exercise: GET /values?readout=log10 EC50&item= C=CC(=O)OCCOCCOCCOCCOC(=O)C=C [Tetraethylene glycol diacrylate]
Key: 1.47

Exercise: GET /values?readout=log10 EC50&item= `ClC1=C(Cl)[C@]2(Cl)[C@@H]3[C@@H]4C[C@@H]([C@H]5O[C@@H]45)[C@@H]3[C@@]1(Cl)C2(Cl)Cl`
Key: 1.15

Exercise: GET /values?readout=log10 EC50&item= `Nc1ccc(Cl)cc1N`
Key: 1.43

Exercise: GET /values?readout=log10 EC50&item= `O=[N+]([O-])c1cc(Cl)c(Cl)c(Cl)c1Cl`
Key: 1.44

Exercise: GET /values?readout=log10 EC50&item= CNc1ccc(O)cc1 [N-Methyl-p-aminophenol sulfate]
Key: 1.39

Exercise: GET /values?readout=log10 EC50&item= `O=c1cc(-c2ccccc2)oc2ccccc12`
Key: 0.88

Exercise: GET /values?readout=log10 EC50&item= Oc1c(I)cc(Cl)c2cccnc12 [Iodochlorohydroxyquinoline]
Key: 1.00

Exercise: GET /values?readout=log10 EC50&item= `C[C@H](CCC(=O)O)[C@H]1CC[C@H]2[C@@H]3CC[C@@H]4C[C@H](O)CC[C@]4(C)[C@H]3CC[C@]12C`
Key: 1.34

Exercise: GET /values?readout=log10 EC50&item= `CN1CSC(=S)N(C)C1`
Key: 1.42

Exercise: GET /values?readout=log10 EC50&item= `CCOCN(C(=O)CCl)c1c(C)cccc1CC`
Key: 1.34

Exercise: GET /values?readout=log10 EC50&item= `c1ccc2c(c1)-c1cccc3c1c-2cc1ccccc13`
Key: 0.11

Exercise: GET /values?readout=log10 EC50&item= `Cc1ccc(O)c(N)c1`
Key: 1.38

Exercise: GET /values?readout=log10 EC50&item= `COc1cc(/C=C/C(=O)CC(=O)/C=C/c2ccc(O)c(OC)c2)ccc1O`
Key: 1.03

Exercise: GET /values?readout=log10 EC50&item= `Nc1cc(Cl)ccc1O`
Key: 0.80

Exercise: GET /values?readout=log10 EC50&item= `CCc1cccc(CC)c1N(COC)C(=O)CCl`
Key: 1.30

Exercise: GET /values?readout=log10 EC50&item= `c1ccc2cc3c(cc2c1)-c1cccc2cccc-3c12`
Key: 0.69

Exercise: GET /values?readout=log10 EC50&item= `CN(C)c1ccc(N)cc1`
Key: 1.07

* * *

system: antioxidant response element (ARE) signaling pathway; assay: ARE-bla β-lactamase reporter gene assay in HepG2 cells (qHTS); format: cell-based, human; settings: primary qHTS screening, 0.59 nM to 92 µM
RECORDED_METRIC: activity in ARE-bla assay (words)

COc1cc(/C=C/C(=O)CC(=O)/C=C/c2ccc(O)c(OC)c2)ccc1O | high-quality active
Nc1ccc(Cl)cc1N | showed activity
Oc1ccc(/C=C/c2cc(O)cc(O)c2)cc1 | active
CCOCN(C(=O)CCl)c1c(C)cccc1CC | high-quality active
O.c1cnc2c(c1)ccc1cccnc12 [1,10-Phenanthroline monohydrate] | showed activity

Exercise: GET /values?readout=activity in ARE-bla assay (words)&item= N[C@@H](Cc1ccc(N(CCCl)CCCl)cc1)C(=O)O [Melphalan, reference compound]
Key: showed activity

Exercise: GET /values?readout=activity in ARE-bla assay (words)&item= `C[S@@+]([O-])CCCCN=C=S`
Key: active
